Test system: HCI01 (cells of a triple-negative basal-like breast cancer xenograft);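 also: PDX cells carrying CMV promoter-driven luciferase, viability read as total photon flux per second by IVIS imaging following D-luciferin, vehicle control 0.1% DMSO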
Test: cell viability (% of vehicle); higher = less cytotoxic
Settings: 10 µM; 72 h
Reported cell viability by item:
measure: cell viability

compound	number
COc1cc2c(Oc3ccc(NC(=O)C4(C(=O)Nc5ccc(F)cc5)CC4)cc3F)ccnc2cc1OCCCN1CCOCC1	35.4
CC(C)(C)Cn1c(N)nc2ccc(-c3[nH]c(C(C)(C)C)nc3-c3ccc(F)cc3)nc21.CS(=O)(=O)O.CS(=O)(=O)O	58.4
CCOc1cc2ncc(C#N)c(Nc3ccc(F)c(Cl)c3)c2cc1NC(=O)C=CCN(C)C [Pelitinib (EKB-569)]	30.5
O=C(NCC(O)CO)c1ccncc1Nc1ccc(I)cc1F (centres undefined)	72.8

Data provenance is the supplement of paper PMC6992640.
